- assayText: Growth inhibition of porcine primary hepatocytes after 72 hrs by SRB assay
- Format: cell-based, Sus scrofa, Hepatocyte
- reportedConditions: pig
observationType: GI50 at 72 h (µM)
Numbers only, in µM.

Answered examples (8):
>  <structure>
COC(=O)c1sc2cc(C#Cc3ccccc3OC)cnc2c1N

>  <observationType>
GI50 at 72 h

>  <valueReported>
121

$$$$
>  <structure>
COC(=O)c1sc2cc(-c3cncc4ccccc34)cnc2c1N

>  <observationType>
GI50 at 72 h

>  <valueReported>
25.4

$$$$
>  <structure>
COC(=O)c1sc2cc(C#Cc3ccccc3)cnc2c1N

>  <observationType>
GI50 at 72 h

>  <valueReported>
95.7

$$$$
>  <structure>
COC(=O)c1sc2cc(-c3cnc4ccccc4c3)cnc2c1N

>  <observationType>
GI50 at 72 h

>  <valueReported>
32.5

$$$$
>  <structure>
COC(=O)c1sc2cc(C#Cc3ccc(OC)cc3)cnc2c1N

>  <observationType>
GI50 at 72 h

>  <valueReported>
76.5

$$$$
>  <structure>
COC(=O)c1sc2cc(C#Cc3ccsc3)cnc2c1N

>  <observationType>
GI50 at 72 h

>  <valueReported>
30.7

$$$$
>  <structure>
COC(=O)c1sc2cc(-c3ccsc3)cnc2c1N

>  <observationType>
GI50 at 72 h

>  <valueReported>
25.2

$$$$
>  <structure>
COC(=O)c1sc2cc(-c3ccc(F)nc3)cnc2c1N

>  <observationType>
GI50 at 72 h

>  <valueReported>
47

$$$$

Would you kindly look at the next entry?
Q. I am curious: what GI50 at 72 h value has been reported for `COC(=O)c1sc2cc(C#Cc3ccccn3)cnc2c1N` ?
A. 56.9
